Measured MCC by item
Experiment: Toxicity in HEL cells assessed as induction of cell morphology changes
Type: cell-based
Conditions: human

>  <mol-smiles>
CC(=O)N[C@H]1[C@H](O[C@@H]2c3ccc(c(Cl)c3)Oc3cc4cc(c3O)Oc3ccc(cc3Cl)C[C@H]3NC(=O)[C@H](n5cc6cc7ccccc7cc6c5Sc5ncccn5)c5ccc(O)c(c5)Oc5cc(O)cc(c5)[C@H](NC3=O)C(=O)N[C@H]4C(=O)N[C@H]3C(=O)N[C@@H]2C(=O)N[C@H](C(=O)O)c2cc(O)cc(O)c2-c2cc3ccc2O)O[C@H](CO)[C@@H](O)[C@@H]1O

>  <reported-endpoint>
MCC

>  <value-reported>
≥ 100 µM

$$$$

Let's switch to this molecule now.
Query: Determine from records and report MCC for O=c1[nH]c(=O)n([C@H]2C[C@H](O)[C@@H](CO)O2)cc1/C=C/Br
Response: > 250 µM

* * *

Tested on: Bacillus subtilis
Assay: Antimicrobial activity against Bacillus subtilis ATCC 6633
Format: functional
Reported MBC values follow for various compounds
Please state the figure in µg/mL; there is no need to write the unit.

These solved cases illustrate the format of a correct answer.
>  <mol-smiles>
CC(=O)N[C@H]1[C@H](O[C@@H]2c3ccc(c(Cl)c3)Oc3cc4cc(c3O)Oc3ccc(cc3Cl)C[C@H]3NC(=O)[C@H](n5cc6cc7ccccc7cc6c5Sc5nc6ccccc6s5)c5ccc(O)c(c5)Oc5cc(O)cc(c5)[C@H](NC3=O)C(=O)N[C@H]4C(=O)N[C@H]3C(=O)N[C@@H]2C(=O)N[C@H](C(=O)O)c2cc(O)cc(O)c2-c2cc3ccc2O)O[C@H](CO)[C@@H](O)[C@@H]1O

>  <MBC / µg/mL>
4

$$$$
>  <mol-smiles>
CC(=O)N[C@H]1[C@H](O[C@@H]2c3ccc(c(Cl)c3)Oc3cc4cc(c3O)Oc3ccc(cc3Cl)C[C@H]3NC(=O)[C@H](n5cc6ccccc6c5Sc5ncccn5)c5ccc(O)c(c5)Oc5cc(O)cc(c5)[C@H](NC3=O)C(=O)N[C@H]4C(=O)N[C@H]3C(=O)N[C@@H]2C(=O)N[C@H](C(=O)O)c2cc(O)cc(O)c2-c2cc3ccc2O)O[C@H](CO)[C@@H](O)[C@@H]1O

>  <MBC / µg/mL>
0.5

$$$$
>  <mol-smiles>
CC(=O)N[C@@H]1[C@H](Oc2c3cc4cc2Oc2ccc(cc2Cl)[C@@H](O[C@@H]2O[C@@H](CO)[C@@H](O)[C@H](O)[C@@H]2NC(C)=O)[C@@H]2NC(=O)[C@H](NC(=O)[C@@H]4NC(=O)[C@H]4NC(=O)[C@@H](Cc5ccc(c(Cl)c5)O3)NC(=O)[C@H](N)c3ccc(O)c(c3)Oc3cc(O)cc4c3)c3ccc(O)c(c3)-c3c(O[C@H]4O[C@H](CO)[C@@H](O)[C@@H](O)[C@@H]4O)cc(O)cc3[C@@H](C(=O)O)NC2=O)O[C@@H](CO)[C@@H](O)[C@@H]1O

>  <MBC / µg/mL>
16

$$$$
>  <mol-smiles>
CC(=O)N[C@H]1[C@H](O[C@@H]2c3ccc(c(Cl)c3)Oc3cc4cc(c3O)Oc3ccc(cc3Cl)C[C@H]3NC(=O)[C@H](n5cc6cc7ccccc7cc6c5Sc5ccccc5)c5ccc(O)c(c5)Oc5cc(O)cc(c5)[C@H](NC3=O)C(=O)N[C@H]4C(=O)N[C@H]3C(=O)N[C@@H]2C(=O)N[C@H](C(=O)O)c2cc(O)cc(O)c2-c2cc3ccc2O)O[C@H](CO)[C@@H](O)[C@@H]1O

>  <MBC / µg/mL>
4

$$$$

Query: Output reported MBC of the compound CC(=O)N[C@@H]1[C@@H](O)[C@H](O)[C@@H](CO)O[C@H]1Sc1c2ccccc2cn1[C@H]1C(=O)N[C@@H]2Cc3ccc(c(Cl)c3)Oc3cc4cc(c3O)Oc3ccc(cc3Cl)[C@@H](O[C@@H]3O[C@H](CO)[C@@H](O)[C@H](O)[C@H]3NC(C)=O)[C@@H]3NC(=O)[C@H](NC(=O)[C@@H]4NC(=O)[C@@H](NC2=O)c2cc(O)cc(c2)Oc2cc1ccc2O)c1ccc(O)c(c1)-c1c(O)cc(O)cc1[C@@H](C(=O)O)NC3=O on Bacillus subtilis.
Response: 1

Query: Tell me MBC of CC(=O)N[C@@H]1[C@@H](OC(C)=O)[C@H](OC(C)=O)[C@@H](COC(C)=O)O[C@H]1Sc1c2ccccc2cn1[C@H]1C(=O)N[C@@H]2Cc3ccc(c(Cl)c3)Oc3cc4cc(c3O)Oc3ccc(cc3Cl)[C@@H](O[C@@H]3O[C@H](CO)[C@@H](O)[C@H](O)[C@H]3NC(C)=O)[C@@H]3NC(=O)[C@H](NC(=O)[C@@H]4NC(=O)[C@@H](NC2=O)c2cc(O)cc(c2)Oc2cc1ccc2O)c1ccc(O)c(c1)-c1c(O)cc(O)cc1[C@@H](C(=O)O)NC3=O when tested on Bacillus subtilis.
Response: 1

* * *

Test: Toxicity in MDCK cells assessed as induction of cell morphology changes
Assay type: cell-based, Canis lupus familiaris
Details: dog
reported-endpoint: MCC

Would you please look over these solved cases?
>  <mol-smiles>
CC(=O)N[C@H]1[C@H](O[C@@H]2c3ccc(c(Cl)c3)Oc3cc4cc(c3O)Oc3ccc(cc3Cl)C[C@H]3NC(=O)[C@H](n5cc6cc7ccccc7cc6c5Sc5nc6ccccc6s5)c5ccc(O)c(c5)Oc5cc(O)cc(c5)[C@H](NC3=O)C(=O)N[C@H]4C(=O)N[C@H]3C(=O)N[C@@H]2C(=O)N[C@H](C(=O)O)c2cc(O)cc(O)c2-c2cc3ccc2O)O[C@H](CO)[C@@H](O)[C@@H]1O

>  <MCC>
20 µM

$$$$
>  <mol-smiles>
CC(=O)N[C@@H]1[C@@H](O)[C@H](O)[C@@H](CO)O[C@H]1Sc1c2ccccc2cn1[C@H]1C(=O)N[C@@H]2Cc3ccc(c(Cl)c3)Oc3cc4cc(c3O)Oc3ccc(cc3Cl)[C@@H](O[C@@H]3O[C@H](CO)[C@@H](O)[C@H](O)[C@H]3NC(C)=O)[C@@H]3NC(=O)[C@H](NC(=O)[C@@H]4NC(=O)[C@@H](NC2=O)c2cc(O)cc(c2)Oc2cc1ccc2O)c1ccc(O)c(c1)-c1c(O)cc(O)cc1[C@@H](C(=O)O)NC3=O

>  <MCC>
< 0.8 µM

$$$$
>  <mol-smiles>
CC(=O)N[C@H]1[C@H](O[C@@H]2c3ccc(c(Cl)c3)Oc3cc4cc(c3O)Oc3ccc(cc3Cl)C[C@H]3NC(=O)[C@H](n5cc6ccccc6c5Sc5nc6ccccc6s5)c5ccc(O)c(c5)Oc5cc(O)cc(c5)[C@H](NC3=O)C(=O)N[C@H]4C(=O)N[C@H]3C(=O)N[C@@H]2C(=O)N[C@H](C(=O)O)c2cc(O)cc(O)c2-c2cc3ccc2O)O[C@H](CO)[C@@H](O)[C@@H]1O

>  <MCC>
4 µM

$$$$

Query: Fill in MCC for record CC(=O)N[C@H]1[C@H](O[C@@H]2c3ccc(c(Cl)c3)Oc3cc4cc(c3O)Oc3ccc(cc3Cl)C[C@H]3NC(=O)[C@H](N)c5ccc(O)c(c5)Oc5cc(O)cc(c5)[C@H](NC3=O)C(=O)N[C@H]4C(=O)N[C@H]3C(=O)N[C@@H]2C(=O)N[C@H](C(=O)O)c2cc(O)cc(O)c2-c2cc3ccc2O)O[C@H](CO)[C@@H](O)[C@@H]1O
Response: ≥ 100 µM

* * *

Recorded MCC for the following compounds
Assay: Toxicity in HEL cells assessed as induction of cell morphology changes
Assay type: cell-based
Settings: human

>  <mol-smiles>
CC(=O)N[C@H]1[C@H](O[C@@H]2c3ccc(c(Cl)c3)Oc3cc4cc(c3O)Oc3ccc(cc3Cl)C[C@H]3NC(=O)[C@H](n5cc6ccccc6c5Sc5nc6ccccc6s5)c5ccc(O)c(c5)Oc5cc(O)cc(c5)[C@H](NC3=O)C(=O)N[C@H]4C(=O)N[C@H]3C(=O)N[C@@H]2C(=O)N[C@H](C(=O)O)c2cc(O)cc(O)c2-c2cc3ccc2O)O[C@H](CO)[C@@H](O)[C@@H]1O

>  <MCC>
≥ 100 µM

$$$$
>  <mol-smiles>
Nc1ccn(C[C@@H](CO)OCP(=O)(O)O)c(=O)n1

>  <MCC>
> 250 µM

$$$$
>  <mol-smiles>
CC(=O)N[C@@H]1[C@@H](O)[C@H](O)[C@@H](CO)O[C@H]1Sc1c2ccccc2cn1[C@H]1C(=O)N[C@@H]2Cc3ccc(c(Cl)c3)Oc3cc4cc(c3O)Oc3ccc(cc3Cl)[C@@H](O[C@@H]3O[C@H](CO)[C@@H](O)[C@H](O)[C@H]3NC(C)=O)[C@@H]3NC(=O)[C@H](NC(=O)[C@@H]4NC(=O)[C@@H](NC2=O)c2cc(O)cc(c2)Oc2cc1ccc2O)c1ccc(O)c(c1)-c1c(O)cc(O)cc1[C@@H](C(=O)O)NC3=O

>  <MCC>
≥ 100 µM

$$$$
>  <mol-smiles>
CC(=O)N[C@H]1[C@H](O[C@@H]2c3ccc(c(Cl)c3)Oc3cc4cc(c3O)Oc3ccc(cc3Cl)C[C@H]3NC(=O)[C@H](n5cc6cc7ccccc7cc6c5Sc5ccccc5)c5ccc(O)c(c5)Oc5cc(O)cc(c5)[C@H](NC3=O)C(=O)N[C@H]4C(=O)N[C@H]3C(=O)N[C@@H]2C(=O)N[C@H](C(=O)O)c2cc(O)cc(O)c2-c2cc3ccc2O)O[C@H](CO)[C@@H](O)[C@@H]1O

>  <MCC>
100 µM

$$$$
>  <mol-smiles>
Nc1nc2c(ncn2COC(CO)CO)c(=O)[nH]1

>  <MCC>
> 100 µM

$$$$

Query: Quickly give me recorded MCC for Nc1nc2c(ncn2COCCO)c(=O)[nH]1
Response: > 250 µM

Query: For the compound CC(=O)N[C@@H]1[C@@H](OC(C)=O)[C@H](OC(C)=O)[C@@H](COC(C)=O)O[C@H]1Sc1c2ccccc2cn1[C@H]1C(=O)N[C@@H]2Cc3ccc(c(Cl)c3)Oc3cc4cc(c3O)Oc3ccc(cc3Cl)[C@@H](O[C@@H]3O[C@H](CO)[C@@H](O)[C@H](O)[C@H]3NC(C)=O)[C@@H]3NC(=O)[C@H](NC(=O)[C@@H]4NC(=O)[C@@H](NC2=O)c2cc(O)cc(c2)Oc2cc1ccc2O)c1ccc(O)c(c1)-c1c(O)cc(O)cc1[C@@H](C(=O)O)NC3=O , give its reported MCC.
Response: > 100 µM

FYI, the data here is from ChEMBL document CHEMBL2203009.
